Recorded cell viability by entry
system: P12-Ichikawa; test: cell viability relative to DMSO control; higher = less cytotoxic; settings: HPLM + 10% dialyzed FBS; 48 h; 5.12 µM
Write the number in % without appending the unit.

Answered cases to consult:
NC(=O)Nc1sc(-c2ccc(F)cc2)cc1C(N)=O    83.4
CC(C)(S)[C@@H](N)C(=O)O    117
CCC[S+](=O)([O-])Nc1ccc(F)c(C(=O)c2c[nH]c3ncc(Cl)cc23)c1F    103

Prompt line: Retrieve cell viability on P12-Ichikawa; query "CCN1C[C@H](C)[N]2C(=C(O)C3=C2\C(=N/N(CC4=CC=C(F)C(=C4)Cl)C3=O)C(=O)NC)C1=O"
Response line: 103

Prompt line: Retrieve cell viability on P12-Ichikawa; query "c1ccc2c(Cc3c[nH]c4ccccc34)c[nH]c2c1"
Response line: 89.7

Prompt line: Retrieve cell viability on P12-Ichikawa; query N[C@H]2CN(CC12CC1)c3c(F)cc4c(c3Cl)[N@@](C=C(C4=O)C(=O)O)C5C[C@H]5F (stereo partly drawn)
Response line: 88.8

Prompt line: Retrieve cell viability on P12-Ichikawa; query "O=C(Nc1nnc(-c2ccco2)o1)c1cc(-c2ccccc2)nc2ccccc12"
Response line: 44.4

Prompt line: Retrieve cell viability on P12-Ichikawa; query "N\C1=N\C2=C(N=C[N]2COCCO)C(=O)N1"
Response line: 109

---

tested on: NOMO1; test: cell viability relative to DMSO control; higher = less cytotoxic; settings: HPLM + 10% dialyzed FBS; 48 h; 0.00702 µM
Recorded cell viability by entry
Write the number in % without appending the unit.

Answered cases to consult:
CCN(CC)CCOc1ccc(Cc2ccccc2)cc1    113
COC(=O)Nc1nc2cc(C(=O)c3ccc(F)cc3)ccc2[nH]1    102
Cc1cc(OCCC[S+](C)(=O)[O-])cc(C)c1-c1cccc(COc2ccc3c(c2)OC[C@H]3CC(=O)O)c1    98.7

Prompt line: Output measured cell viability for this item: COc1ccc(C(CN(C)C)C2(O)CCCCC2)cc1 (stereo not drawn)
Response line: 124

Prompt line: Output measured cell viability for this item: "NC[C@@H]1O[C@H](O[C@H]2[C@@H](O)[C@H](O[C@@H]3[C@@H](O)[C@H](N)C[C@H](N)[C@H]3O[C@H]3O[C@H](CN)[C@@H](O)[C@H](O)[C@H]3N)O[C@@H]2CO)[C@H](N)[C@@H](O)[C@@H]1O.O=S(=O)(O)O.O=S(=O)(O)O.O=S(=O)(O)O"
Response line: 110

Prompt line: Output measured cell viability for this item: "N#C/C(=C\c1ccc(O)c(O)c1)C(=O)NCc1ccccc1"
Response line: 124

Prompt line: Output measured cell viability for this item: "CC[C@]12CC[C@H]3[C@@H](CCC/4=C/C(=O)CC[C@H]34)[C@@H]1CC[C@@]2(O)C#C"
Response line: 101

---

tested on: NOMO1; assay: cell viability relative to DMSO control; higher = less cytotoxic; conditions: RPMI 5 mM glucose + 10% dialyzed FBS; 48 h; 0.569 µM
reported.metric: cell viability (%)
Write the number in % without appending the unit.

N#C/C(=C\c1ccc(O)c(O)c1)C(=O)NCc1ccccc1    99.3
C=C1C(=O)OC(CCCCCCCC)C1C(=O)O (stereo not given)    125
CCC[S+](=O)([O-])Nc1ccc(F)c(C(=O)c2c[nH]c3ncc(Cl)cc23)c1F    119
COc1cc2ncn(-c3cc(OCc4ccccc4[S+](C)(=O)[O-])c(C#N)s3)c2cc1OC    95.3

Attention now shifts to the item below.
Prompt line: Retrieve cell viability on NOMO1; query "COc1cccc2c1C(=O)c1c(O)c3c(c(O)c1C2=O)C[C@@](O)(C(=O)CO)C[C@@H]3O[C@H]1C[C@H](N)[C@H](O[C@H]2CCCCO2)[C@H](C)O1"
Response line: 106
